- TARGET_ENTITY: T1, CRBN, Q96SW2;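 also: pooled lentiviral library of zinc finger degron-EGFP fusions in mCherry-positive Jurkat cells, FACS-sorted after compound exposure, with degron abundance counted by next-generation sequencing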
- T1 chain: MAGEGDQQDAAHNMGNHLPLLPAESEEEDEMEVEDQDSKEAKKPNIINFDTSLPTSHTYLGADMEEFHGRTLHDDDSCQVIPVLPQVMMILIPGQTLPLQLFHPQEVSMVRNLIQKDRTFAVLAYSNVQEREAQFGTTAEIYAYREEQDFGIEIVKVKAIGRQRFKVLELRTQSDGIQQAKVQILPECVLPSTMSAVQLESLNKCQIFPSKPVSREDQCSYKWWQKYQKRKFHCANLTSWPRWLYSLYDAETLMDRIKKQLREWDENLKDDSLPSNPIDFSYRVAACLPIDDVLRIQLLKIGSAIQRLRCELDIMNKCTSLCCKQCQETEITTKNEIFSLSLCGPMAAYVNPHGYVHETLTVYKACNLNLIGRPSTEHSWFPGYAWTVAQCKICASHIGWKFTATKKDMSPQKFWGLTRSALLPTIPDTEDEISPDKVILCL
- ASSAY_REMARKS: log2 fold change of degron read counts, EGFP-low vs EGFP+ sorted cells (limma voom), compound-induced degradation; higher = more compound-induced degradation of the degron-EGFP fusion; degrons are variants of IKZF1/3 zinc finger 2; compound dose not given here
- TEST_CONTEXT: Jurkat; 18 h; compound: compound 22 (5-morpholino-thalidomide)
The full ranking holds about 8,300 sequences; the median of “log2 fold change of degron read counts, EGFP-low vs EGFP+ sorted cells (limma voom), compound-induced degradation” is about -1.1, and the highest 2% start at about 3.2. The sample holds the highest values, similar sequences and a random draw of the others, so the mix is not that of the screen.
Entries and their measured log2 fold change of degron read counts follow.
# print the numeric value only

For the sequence shown here, LWCNQCGFLCTQKGNLLRHIKL [46L_47W_49N_50Q_52G_53F_54L_55C_67L_, Q9UKT9] , give the reported log2 fold change of degron read counts.
-0.578

Try this sequence too: LHCPICGFWCTQKGNLLRHIKL [46L_47H_49P_50I_52G_53F_54W_55C_67L_, Q9UKT9]
1.54

Try this sequence too: LYCNQCGFQCTQKGNLLRHIKL [46L_47Y_49N_50Q_52G_53F_54Q_55C_67L_, Q9UKT9]
-0.758

Try this sequence too: LDCNQCGFVCTQKGNLLRHIKL [46L_47D_49N_50Q_52G_53F_54V_55C_67L_, Q9UKT9]
-2.2

Try this sequence too: FECEICGHPFTQKGNLLRHIKL [46F_47E_49E_50I_52G_53H_54P_55F_67L_, Q9UKT9]
-3.81

Try this sequence too: FKCPVCGANFTQKGNLLRHIKL [46F_47K_49P_50V_52G_53A_54N_55F_67L_, Q9UKT9]
-1.7

Entry source: the supplement of paper PMC12645437
